Experiment: isobaric coefficient of expansion
Conditions: 298.15 K; 20000 kPa; Liquid; Microcalorimeter
Listing: isobaric coefficient of expansion of selected compounds

Known isobaric coefficient of expansion results, listed for orientation:
INSERT INTO assay_data (compound, reading) VALUES
  ('CCCCCC[n+]1ccn(C)c1.O=S(=O)([N-]S(=O)(=O)C(F)(F)F)C(F)(F)F', '0.000633 1/K'),
  ('CCCCCCCC[n+]1ccn(C)c1.F[B-](F)(F)F [1-methyl-3-octylimidazolium tetrafluoroborate]', '0.000586 1/K'),
  ('CCn1cc[n+](C)c1.F[B-](F)(F)F [1-ethyl-3-methylimidazolium tetrafluoroborate]', '0.00058 1/K'),
  ('CCCCCCn1cc[n+](C)c1.F[B-](F)(F)F [1-hexyl-3-methylimidazolium tetrafluoroborate]', '0.000586 1/K'),
  ('CCCC[n+]1cccc(C)c1.F[B-](F)(F)F [1-butyl-3-methylpyridinium tetrafluoroborate]', '0.000577 1/K');

The record that follows has no isobaric coefficient of expansion shown yet.
Recorded isobaric coefficient of expansion of CCn1cc[n+](C)c1.O=S(=O)([N-]S(=O)(=O)C(F)(F)F)C(F)(F)F , please. 0.000633 1/K
